Species on record: Bos taurus
Assay: Modulation of ATP synthase in bovine rod outer segments assessed as inhibition of ATP production at 80 ug/ml in presence of Ap5A adenylate kinase inhibitor by luciferin/luciferase chemiluminescent method relative to control
MEASUREMENT TYPE: inhibition (%)
Give the quantity in %, number only.

*Q* # get_value(readout='inhibition', item= C=C[C@@](C)(O)CC[C@H]1C(=C)CC[C@H]2C(C)(C)CCC[C@]12C )
*A* 60

*Q* Also check C=C[C@@](C)(O)CC[C@@H]1[C@@]2(C)CCCC(C)(C)[C@@H]2CC[C@@]1(C)O
*A* 70

*Q* Please answer likewise for CC1=CC(=O)O[C@@H]1C/C=C(\C)CC[C@@H]1[C@@]2(C)CCC[C@@]3(C)C(=O)O[C@@H](C[C@@]1(C)O)[C@H]23
*A* 79

*Q* Then COC(=O)[C@]1(C)CCC[C@@]2(C)[C@H]1[C@@H](O)C[C@@](C)(O)[C@@H]2CC/C(C)=C/C[C@H]1OC(=O)C=C1C ?
*A* 60

----------
Tested on: Staphylococcus aureus
Assay: Antibacterial activity against Methicillin-resistant Staphylococcus aureus MB188 after 24 hrs by microdilution assay
Assay type: functional
Conditions: MB188, 24 h
Provide the reported MIC of each item.

*Q* Fill blank: measured MIC of the compound CC1(C)CCC[C@]2(C)[C@@H](CC[C@](C)(O)[C@H]3CO3)[C@](C)(O)CC[C@@H]12 is ____.
*A* 395 µM

*Q* And then COC1O[C@H]2C[C@@](C)(O)[C@H](CC/C(C)=C/CC3OC(=O)C=C3C)[C@@]3(C)CCC[C@]1(C)[C@H]23 (stereo partly specified) , what is it?
*A* 296 µM

*Q* Queued: CC1=CC(=O)O[C@@H]1C/C=C(\C)CC[C@@H]1[C@@]2(C)CCC[C@@]3(C)C(=O)O[C@@H](C[C@@]1(C)O)[C@H]23
*A* > 128 µg/mL

*Q* Can you handle COC(=O)[C@]1(C)CCC[C@@]2(C)[C@H]1CC[C@@](C)(O)[C@@H]2CC/C(C)=C/C[C@H]1OC(=O)C=C1C next?
*A* 296 µM

*Q* Request: COC1O[C@H]2C[C@@](C)(O)[C@H](CC/C(C)=C/[C@H](O)[C@H]3OC(=O)C=C3C)[C@@]3(C)CCC[C@]1(C)[C@H]23 (stereo partly specified)
*A* > 128 µg/mL

*Q* Also, COC(=O)[C@]1(C)CCC[C@@]2(C)[C@H]1CC[C@@](C)(O)[C@@H]2CC/C(C)=C/[C@H](O)[C@H]1OC(=O)C=C1C please.
*A* > 128 µg/mL

----------
Test system: Enterococcus durans
Experiment: Antibacterial activity against Enterococcus durans MB113 after 24 hrs by microdilution assay
Assay type: functional
Conditions: MB113, 24 h
Binary label based on MIC with cut-off 200 µM: below gives yes (1), not below gives no (0).

*Q* Please check: MIC for CC1=CC(=O)O[C@@H]1[C@@H](O)/C=C(\C)CC[C@@H]1[C@@]2(C)CCC[C@@]3(C)C(=O)O[C@@H](C[C@@]1(C)O)[C@H]23 , strictly under 200 µM or not?
*A* no (0)

*Q* Next entry: COc1cc2oc(-c3ccc(O)cc3)cc(=O)c2c(O)c1OC [CIRSIMARITIN]
*A* no (0)

*Q* Consider next the compound CN[C@H](CC(C)C)C(=O)N[C@H]1C(=O)N[C@@H](CC(N)=O)C(=O)N[C@H]2C(=O)N[C@H]3C(=O)N[C@H](C(=O)N[C@H](C(=O)O)c4cc(O)cc(O)c4-c4cc3ccc4O)[C@H](O)c3ccc(c(Cl)c3)Oc3cc2cc(c3O[C@@H]2O[C@H](CO)[C@@H](O)[C@H](O)[C@H]2O[C@H]2C[C@](C)(N)[C@H](O)[C@H](C)O2)Oc2ccc(cc2Cl)[C@H]1O [VANCOMYCIN] in the same way.
*A* yes (1)

*Q* Further, for COC(=O)[C@]1(C)CCC[C@@]2(C)[C@H]1[C@@H](O)C[C@@](C)(O)[C@@H]2CC/C(C)=C/[C@H](O)[C@H]1OC(=O)C=C1C ?
*A* yes (1)

----------
Could you please report measured MIC for the items listed next?
System: Staphylococcus hominis
Assay: Antibacterial activity against Methicillin-resistant Staphylococcus hominis MB124 after 24 hrs by microdilution assay
Assay type: functional
Details: MB124, 24 h

*Q* Looking for the measured MIC of C=C[C@@](C)(O)CC[C@@H]1[C@@]2(C)CCCC(C)(C)[C@@H]2CC[C@@]1(C)O , can you help?
*A* 104 µM

*Q* Moving on to the next molecule: COc1cc2oc(-c3ccc(O)cc3)cc(=O)c2c(O)c1OC
*A* > 128 µg/mL

*Q* For CC1=CC(=O)O[C@@H]1C/C=C(\C)CC[C@@H]1[C@@]2(C)CCC[C@@]3(C)C(=O)O[C@@H](C[C@@]1(C)O)[C@H]23 then?
*A* > 128 µg/mL

*Q* Could you do the same for CC1=CC(=O)O[C@@H]1[C@@H](O)/C=C(\C)CC[C@@H]1[C@@]2(C)CCC[C@@]3(C)C(=O)O[C@@H](C[C@@]1(C)O)[C@H]23 , please?
*A* > 128 µg/mL

*Q* # iterate: Cc1onc(-c2ccccc2)c1C(=O)N[C@@H]1C(=O)N2[C@@H]1SC(C)(C)[C@@H]2C(=O)O
*A* 39.9 µM

*Q* Now try COC(=O)[C@]1(C)CCC[C@@]2(C)[C@H]1[C@@H](O)C[C@@](C)(O)[C@@H]2CC/C(C)=C/[C@H](O)[C@H]1OC(=O)C=C1C .
*A* 138 µM

*Q* Please answer likewise for C=C[C@@](C)(O)CC[C@H]1C(=C)CC[C@H]2C(C)(C)CCC[C@]12C
*A* > 128 µg/mL

----------
Tested on: Staphylococcus aureus
Experiment: Antibacterial activity against Methicillin-resistant Staphylococcus aureus MB188 after 24 hrs by microdilution assay
Format: functional
Settings: MB188, 24 h
MEASUREMENT TYPE: MIC

*Q* Name the recorded MIC for C=C[C@@](C)(O)CC[C@@H]1[C@@]2(C)CCCC(C)(C)[C@@H]2CC[C@@]1(C)O .
*A* 104 µM

*Q* Then COC(=O)[C@]1(C)CCC[C@]2(C)[C@H]3CCC(C)(/C=C/c4occc4C)O[C@]3(C)CC[C@H]21 (stereo partly drawn) ?
*A* > 128 µg/mL

*Q* // repeat for CC1=CC(=O)O[C@@H]1C/C=C(\C)CC[C@@H]1[C@@]2(C)CCC[C@@](C)(CO)[C@@H]2[C@@H](O)C[C@@]1(C)O and report
*A* > 128 µg/mL

*Q* Also, CC1=CC(=O)OC1C/C=C(\C)CC[C@@H]1[C@@]2(C)CCC[C@@](C)(CO)[C@@H]2CC[C@@]1(C)O (stereo partly drawn) please.
*A* > 128 µg/mL

*Q* Param item: Cc1onc(-c2ccccc2)c1C(=O)N[C@@H]1C(=O)N2[C@@H]1SC(C)(C)[C@@H]2C(=O)O [OXACILLIN]
*A* 1280 µM

*Q* And what about the compound COc1ccc(-c2cc(=O)c3c(O)c(OC)c(OC)cc3o2)cc1O [EUPATORIN] ?
*A* > 128 µg/mL

*Q* Proceed to C=C[C@@](C)(O)CC[C@H]1C(=C)CC[C@H]2C(C)(C)CCC[C@]12C [MANOOL]
*A* > 128 µg/mL

*Q* Next compound up: COc1cc2oc(-c3ccc(O)cc3)cc(=O)c2c(O)c1OC [CIRSIMARITIN]
*A* > 128 µg/mL

----------
Test system: Enterococcus avium
Assay: Antibacterial activity against Enterococcus avium MB119 after 24 hrs by microdilution assay
Assay type: functional
Conditions: MB119, 24 h
Could you please report measured MIC for the items listed next?

*Q* I'd like to know its MIC. The compound in question is CC1(C)CCC[C@]2(C)[C@@H](CC[C@](C)(O)[C@H]3CO3)[C@](C)(O)CC[C@@H]12
*A* 99 µM

*Q* Queued: CC1=CC(=O)O[C@@H]1C/C=C(\C)CC[C@@H]1[C@@]2(C)CCC[C@@]3(C)C(O)O[C@@H](C[C@@]1(C)O)[C@H]23 (stereo partly drawn)
*A* > 128 µg/mL

*Q* Another compound to check: CC1=CC(=O)O[C@@H]1C/C=C(\C)CC[C@@H]1[C@@]2(C)CCC[C@@](C)(CO)[C@@H]2[C@@H](O)C[C@@]1(C)O
*A* > 128 µg/mL

----------
System: Enterococcus faecalis
Test: Antibacterial activity against Vancomycin resistant Enterococcus faecalis MB51 after 24 hrs by microdilution assay
Assay type: functional
Conditions: MB51, 24 h
I'd appreciate it if you marked entries Y when MIC is lower than 200 µM and N when it is not.

*Q* Dear colleague, could you confirm whether MIC of C=C[C@@](C)(O)CC[C@H]1C(=C)CC[C@H]2C(C)(C)CCC[C@]12C falls below 200 µM? Thanks.
*A* Y

*Q* Query COC(=O)[C@]1(C)CCC[C@@]2(C)[C@H]1[C@@H](O)C[C@@](C)(O)[C@@H]2CC/C(C)=C/C[C@H]1OC(=O)C=C1C next
*A* Y

*Q* Also COc1ccc(-c2cc(=O)c3c(O)c(OC)c(OC)cc3o2)cc1O , if possible.
*A* N

*Q* Also, COc1ccc(-c2cc(=O)c3c(OC)c(OC)c(OC)cc3o2)cc1 please.
*A* N

*Q* Here is the next molecule: C=C[C@@](C)(O)CC[C@@H]1[C@@]2(C)CCCC(C)(C)[C@@H]2CC[C@@]1(C)O
*A* N

*Q* Then this molecule: COc1ccc(-c2cc(=O)c3c(OC)c(OC)c(OC)cc3o2)cc1OC
*A* Y

*Q* Would you kindly repeat that for CC1=CC(=O)O[C@@H]1[C@@H](O)/C=C(\C)CC[C@@H]1[C@@]2(C)CCC[C@@]3(C)C(=O)O[C@@H](C[C@@]1(C)O)[C@H]23 ?
*A* N

FYI, the data here is from ChEMBL document CHEMBL4610084.
